- Test system: SCC-9
- EXPERIMENT: Antiproliferative activity against human SCC-9 cells incubated for 72 hrs by MTT assay
- PROTOCOL_CONDITIONS: SCC-9, 72 h
pIC50: −log10 of the molar value.
Below, each entry is listed with its recorded pIC50.
MEASURE: pIC50

MOL	TESTED_ON	RECORDED_NUMBER
Cc1cc2c(cc1Cl)SC(/N=C(/N)Nc1ccnc3cc(Cl)ccc13)=NS2(=O)=O	SCC-9	6.00
Cc1cc2c(cc1Cl)SC(/N=C(/N)Nc1ccc(N3CCOCC3)cc1)=NS2(=O)=O	SCC-9	5.92
Cc1cc2c(cc1Cl)SC(/N=C(/N)Nc1cccc3cnccc13)=NS2(=O)=O	SCC-9	5.92
Cc1cc(S(=O)(=O)Nc2nc(Nc3ccc4ccccc4c3)n[nH]2)c(S)cc1Cl	SCC-9	5.40
Cc1cc(S(=O)(=O)Nc2nc(NC(=O)c3ccc4ccccc4c3)n[nH]2)c(S)cc1Cl	SCC-9	5.59
Cc1cc(S(=O)(=O)Nc2nc(Nc3cncc4ccccc34)n[nH]2)c(S)cc1Cl	SCC-9	5.68
Cc1cc2c(cc1Cl)SC(/N=C(/N)Nc1cnc3ccccn3c1=O)=NS2(=O)=O	SCC-9	6.05

----------
Below, each entry is listed with its recorded IC50.
- Test system: HCT-116
- EXPERIMENT: Antiproliferative activity against human HCT-116 cells incubated for 72 hrs by MTT assay
- PROTOCOL_CONDITIONS: HCT-116, 72 h
MEASURE: IC50

MOL	TESTED_ON	RESULT
Cc1cc2c(cc1Cl)SC(/N=C(/N)Nc1ccnc3cc(Cl)ccc13)=NS2(=O)=O	HCT-116	2.8 µM
Cc1cc2c(cc1Cl)SC(/N=C(/N)Nc1ccc(N3CCOCC3)cc1)=NS2(=O)=O	HCT-116	4.4 µM
Cc1cc(S(=O)(=O)Nc2nc(Nc3ccc4ccccc4c3)n[nH]2)c(S)cc1Cl	HCT-116	4.9 µM
Cc1cc2c(cc1Cl)SC(/N=C(/N)Nc1cnc3ccccn3c1=O)=NS2(=O)=O	HCT-116	4 µM
Cc1cc2c(cc1Cl)SC(/N=C(/N)Nc1cccc3cnccc13)=NS2(=O)=O	HCT-116	3.2 µM
Cc1cc(S(=O)(=O)Nc2nc(NC(=O)c3ccc4ccccc4c3)n[nH]2)c(S)cc1Cl	HCT-116	4.1 µM
Cc1cc(S(=O)(=O)Nc2nc(Nc3cncc4ccccc34)n[nH]2)c(S)cc1Cl	HCT-116	3.8 µM

----------
- EXPERIMENT: Selectivity index, ratio of IC50 for HEK293 cells to IC50 for human HCT-116 cells
- PROTOCOL_CONDITIONS: HEK293 cells versus HCT-116 cells
Below, each entry is listed with its recorded selectivity ratio.

MOL	selectivity ratio
Cc1cc2c(cc1Cl)SC(/N=C(/N)Nc1ccc3nccnc3c1)=NS2(=O)=O	> 65
Cc1cc2c(cc1Cl)SC(/N=C(/N)Nc1ccc3ccccc3n1)=NS2(=O)=O	> 65
Cc1cc2c(cc1Cl)SC(/N=C(/N)Nc1cnc3ccccc3c1)=NS2(=O)=O	> 65
COc1cc2nccc(Nc3n[nH]c(NS(=O)(=O)c4cc(C)c(Cl)cc4S)n3)c2cc1OC	> 65
Cc1cc(S(=O)(=O)Nc2nnc(Nc3ccccc3)[nH]2)c(S)cc1Cl	> 65
Cc1cc2c(cc1Cl)SC(/N=C(/N)Nc1ccc3cc(O)ccc3c1)=NS2(=O)=O	> 65
Cc1cc2c(cc1Cl)SC(/N=C(/N)Nc1ccc(N3CCOCC3)cc1)=NS2(=O)=O	> 65
Cc1cc2c(cc1Cl)SC(/N=C(/N)Nc1ccc3c(ccc(=O)n3C)c1)=NS2(=O)=O	> 65
Cc1cc2c(cc1Cl)SC(/N=C(/N)NC(=O)c1ccc3ccccc3c1)=NS2(=O)=O	> 65
Cc1cc(S(=O)(=O)Nc2nc(NC(=O)c3ccc4ccccc4c3)n[nH]2)c(S)cc1Cl	> 65
Cc1cc2c(cc1Cl)SC(/N=C(/N)Nc1ccnc3ccccc13)=NS2(=O)=O	> 65
COc1cccc2c(O)ccc(N/C(N)=N\C3=NS(=O)(=O)c4cc(C)c(Cl)cc4S3)c12	> 65
COc1cc2nccc(N/C(N)=N\C3=NS(=O)(=O)c4cc(C)c(Cl)cc4S3)c2cc1OC	> 65
Cc1cc2c(cc1Cl)SC(/N=C(/N)Nc1cncc3ccccc13)=NS2(=O)=O	> 65
Cc1cc2c(cc1Cl)SC(/N=C(/N)Nc1cccc3cccnc13)=NS2(=O)=O	> 65
Cc1cc(S(=O)(=O)Nc2nc(Nc3cccc4ncccc34)n[nH]2)c(S)cc1Cl	> 65
CC(=O)c1cn(C)c2ccc(N/C(N)=N\C3=NS(=O)(=O)c4cc(C)c(Cl)cc4S3)cc12	> 65
Cc1cc(S(=O)(=O)Nc2nc(Nc3ccc4cnccc4c3)n[nH]2)c(S)cc1Cl	> 65
Cc1cc(S(=O)(=O)Nc2nc(Nc3cnc4ccccc4c3)n[nH]2)c(S)cc1Cl	> 65

----------
- System: MCF7
- EXPERIMENT: Antiproliferative activity against human MCF7 cells incubated for 72 hrs by MTT assay
- PROTOCOL_CONDITIONS: MCF7, 72 h
pIC50: −log10 of the molar value.

MOL	pIC50
COc1nc(N/C(N)=N\C2=NS(=O)(=O)c3cc(C)c(Cl)cc3S2)c2ccn(C)c2n1	5.60
Cc1cc(S(=O)(=O)Nc2nc(Nc3cccc4cnccc34)n[nH]2)c(S)cc1Cl	5.13
Cc1cc2c(cc1Cl)SC(/N=C(/N)Nc1cccc3ncccc13)=NS2(=O)=O	5.44
Cc1cc(S(=O)(=O)Nc2nc(Nc3cccc4ncccc34)n[nH]2)c(S)cc1Cl	5.14
Cc1cc2c(cc1Cl)SC(/N=C(/N)Nc1ccc3ncccc3c1)=NS2(=O)=O	5.42
Cc1cc2c(cc1Cl)SC(/N=C(/N)Nc1cnc3ccccn3c1=O)=NS2(=O)=O	6.00
Cc1cc(S(=O)(=O)Nc2nc(Nc3ccc(Br)cc3)n[nH]2)c(S)cc1Cl	5.51
Cc1cc(S(=O)(=O)Nc2nc(Nc3ccc(Cl)cc3)n[nH]2)c(S)cc1Cl	5.13
Cc1cc2c(cc1Cl)SC(/N=C(/N)Nc1cncc3ccccc13)=NS2(=O)=O	5.52
Cc1cc(S(=O)(=O)Nc2nc(Nc3ccnc4cc(Cl)ccc34)n[nH]2)c(S)cc1Cl	5.40

----------
- Tested on: MCF7
- EXPERIMENT: Antiproliferative activity against human MCF7 cells incubated for 72 hrs by MTT assay
- PROTOCOL_CONDITIONS: MCF7, 72 h
Below, each entry is listed with its recorded IC50.
MEASURE: IC50

MOL	RESULT
Cc1cc2c(cc1Cl)SC(/N=C(/N)Nc1ccc3nccnc3c1)=NS2(=O)=O	2.5 µM
COc1ccc(Nc2n[nH]c(NS(=O)(=O)c3cc(C)c(Cl)cc3S)n2)cc1	7.8 µM
COc1ccc2ccccc2c1Nc1n[nH]c(NS(=O)(=O)c2cc(C)c(Cl)cc2S)n1	7.7 µM
Cc1cc2c(cc1Cl)SC(/N=C(/N)Nc1ccnc3ccccc13)=NS2(=O)=O	3.1 µM
Cc1cc(S(=O)(=O)Nc2nnc(Nc3ccccc3)[nH]2)c(S)cc1Cl	6.3 µM

----------
Below, each entry is listed with its recorded pIC50.
- Test system: MCF7
- EXPERIMENT: Antiproliferative activity against human MCF7 cells incubated for 72 hrs by MTT assay
- PROTOCOL_CONDITIONS: MCF7, 72 h
pIC50: −log10 of the molar value.

MOL	pIC50
Cc1cc2c(cc1Cl)SC(/N=C(/N)Nc1cccc3cccnc13)=NS2(=O)=O	5.44
COc1ccc2ccccc2c1N/C(N)=N\C1=NS(=O)(=O)c2cc(C)c(Cl)cc2S1	5.52
COc1cc(N/C(N)=N\C2=NS(=O)(=O)c3cc(C)c(Cl)cc3S2)cc(OC)c1OC	5.62
Cc1cc2c(cc1Cl)SC(/N=C(/N)NC(=O)c1ccc3ccccc3c1)=NS2(=O)=O	5.62
Cc1cc2c(cc1Cl)SC(/N=C(/N)Nc1cccc3cnccc13)=NS2(=O)=O	5.89
Cc1cc2c(cc1Cl)SC(/N=C(/N)Nc1ccc3cc(O)ccc3c1)=NS2(=O)=O	5.49
Cc1cc(S(=O)(=O)Nc2nc(Nc3ccc4cc(O)ccc4c3)n[nH]2)c(S)cc1Cl	5.12
COc1cc2nccc(Nc3n[nH]c(NS(=O)(=O)c4cc(C)c(Cl)cc4S)n3)c2cc1OC	5.08
COc1ccc(N/C(N)=N\C2=NS(=O)(=O)c3cc(C)c(Cl)cc3S2)cc1	5.48
Cc1cc2c(cc1Cl)SC(/N=C(/N)Nc1ccc3cnccc3c1)=NS2(=O)=O	5.27
COc1cccc2c(O)ccc(N/C(N)=N\C3=NS(=O)(=O)c4cc(C)c(Cl)cc4S3)c12	5.49
COc1ccc(Nc2n[nH]c(NS(=O)(=O)c3cc(C)c(Cl)cc3S)n2)c(OC)c1OC	5.19
Cc1cc(S(=O)(=O)Nc2nc(Nc3ccc4ncccc4c3)n[nH]2)c(S)cc1Cl	5.15
Cc1cc2c(cc1Cl)SC(/N=C(/N)Nc1ccc(Cl)cc1)=NS2(=O)=O	5.26
Cc1cc(S(=O)(=O)Nc2nc(NC(=O)c3ccc4ccccc4c3)n[nH]2)c(S)cc1Cl	5.55
Cc1cc(S(=O)(=O)Nc2nc(Nc3cccc4ccccc34)n[nH]2)c(S)cc1Cl	5.12
Cc1cc2c(cc1Cl)SC(/N=C(/N)Nc1cnc3ccccc3c1)=NS2(=O)=O	5.64
COc1cc2nccc(N/C(N)=N\C3=NS(=O)(=O)c4cc(C)c(Cl)cc4S3)c2cc1OC	5.46
Cc1cc2c(cc1Cl)SC(/N=C(/N)Nc1ccc3ccccc3c1)=NS2(=O)=O	5.46
